- assayed_target: CDK9–cyclin T (Homo sapiens)
- Construct: purchased Thermo Fisher
- Sequence (P50750 whole entry): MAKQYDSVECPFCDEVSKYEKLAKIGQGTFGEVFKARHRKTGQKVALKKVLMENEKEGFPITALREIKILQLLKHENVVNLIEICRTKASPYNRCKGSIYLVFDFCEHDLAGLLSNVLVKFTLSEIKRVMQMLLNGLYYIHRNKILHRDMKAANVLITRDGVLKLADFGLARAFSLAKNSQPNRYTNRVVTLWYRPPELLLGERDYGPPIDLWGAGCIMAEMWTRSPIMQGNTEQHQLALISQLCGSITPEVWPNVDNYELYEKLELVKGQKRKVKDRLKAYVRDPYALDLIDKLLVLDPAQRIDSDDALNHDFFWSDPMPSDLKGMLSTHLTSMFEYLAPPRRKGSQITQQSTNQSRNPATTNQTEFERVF
- Sequence (O60563 whole entry partner): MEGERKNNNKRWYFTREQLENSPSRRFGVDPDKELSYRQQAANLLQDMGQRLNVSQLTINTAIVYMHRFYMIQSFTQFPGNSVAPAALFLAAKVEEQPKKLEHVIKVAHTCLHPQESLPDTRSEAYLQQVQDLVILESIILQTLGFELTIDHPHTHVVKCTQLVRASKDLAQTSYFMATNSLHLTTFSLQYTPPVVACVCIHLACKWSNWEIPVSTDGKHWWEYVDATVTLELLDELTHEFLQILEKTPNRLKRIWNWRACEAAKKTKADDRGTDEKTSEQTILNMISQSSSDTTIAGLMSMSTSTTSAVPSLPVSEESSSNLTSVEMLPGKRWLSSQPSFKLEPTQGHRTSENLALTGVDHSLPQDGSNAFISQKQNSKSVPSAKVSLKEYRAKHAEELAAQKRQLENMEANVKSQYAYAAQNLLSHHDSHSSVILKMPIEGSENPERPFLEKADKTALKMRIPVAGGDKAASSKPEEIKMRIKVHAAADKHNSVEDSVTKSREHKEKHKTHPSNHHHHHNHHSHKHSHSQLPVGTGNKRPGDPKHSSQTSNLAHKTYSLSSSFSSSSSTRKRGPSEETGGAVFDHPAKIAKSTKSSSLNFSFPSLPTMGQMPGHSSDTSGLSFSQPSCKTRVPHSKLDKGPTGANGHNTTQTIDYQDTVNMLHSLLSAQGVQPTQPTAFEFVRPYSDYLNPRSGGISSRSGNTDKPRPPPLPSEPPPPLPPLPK
- method_summary: Lanthascreen kinase binding assay, CDK9
- condition_set: Supplementary Table 2; read-out: Lanthascreen IC50 [nM] CDK9
- Experimental: Lanthascreen experiments were performed using commercially available reagents (Thermo Fisher) and according to the manufacturer’s instructions.
Define the label as t when IC50 is strictly less than 900 nM and as f in all remaining cases.

Past entries and their recorded results:
Please determine if COc1ccc(C)cc1N1C[C@@H](C(=O)Nc2nc3ccccc3[nH]2)CC1=O is below 900 nM in terms of IC50.
f

Please determine if Fc1ccc2[nH]c(CNc3nc(N4CCOCC4)nc4c(Br)cnn34)nc2c1F is below 900 nM in terms of IC50.
t

Please determine if Cc1cc2nc(CNc3nc(N4CCN(C)CC4)nc4c(Br)cnn34)[nH]c2cc1C [DS73, reference compound] is below 900 nM in terms of IC50.
t

Please determine if O=C(CSc1nnc2c(n1)[nH]c1ccccc12)Nc1ccc(Cl)cn1 is below 900 nM in terms of IC50.
f

Please determine if Cc1ccc(C(=O)N2CSCC2C(=O)Nc2ncc(C)s2)o1 (stereo not drawn) is below 900 nM in terms of IC50.
f

Please determine if Cn1cc(-c2cnn3c(NCc4nc5cc(Cl)c(Cl)cc5[nH]4)nc(N4CCOCC4)nc23)cn1 is below 900 nM in terms of IC50.
f

Please determine if Cc1cccc(Nc2nc(CC(=O)Nc3ncc(C)s3)cs2)n1 is below 900 nM in terms of IC50.
f

Please determine if CC[C@H](CO)Nc1nc(NCc2nc3cc(Cl)c(Cl)cc3[nH]2)c2ncn(-c3cnn(C)c3)c2n1 is below 900 nM in terms of IC50.
f

Please determine if CC(C)n1cnc2c(NCc3nc4cc(Cl)c(Cl)cc4[nH]3)nc(N3CCOCC3)nc21 is below 900 nM in terms of IC50.
f

Please determine if CC(C)n1cnc2c(NCc3ccc(-c4ccccn4)cc3)nc(N3CCCC[C@H]3CCO)nc21 is below 900 nM in terms of IC50.
t

Others:
Please determine if CC[C@H](CO)Nc1nc(NCc2nc3cc(Cl)c(Cl)cc3[nH]2)c2ncn(C(C)C)c2n1 is below 900 nM in terms of IC50.
f

Please determine if CC[C@H](CO)Nc1nc(NCc2ccc(-c3ccccn3)cc2)c2ncn(-c3cnn(C)c3)c2n1 is below 900 nM in terms of IC50.
f

----------
- assayed_target: CDK12–cyclin K and DDB1 (Homo sapiens, UniProt Q16531+Q9NYV4, K965R)
- Construct: His6–CDK12 (a.a. 713–1,052); full-length or beta-propeller B domain deletion (ΔBPB: a.a. 396–705 deleted) constructs of His6–DDB1ΔBPB, StrepII–Avi–DDB1, or His6–Spy–DDB1; made in house; host or cells: Trichoplusia ni High Five insect cells (baculovirus)
- Sequence (Q9NYV4 713-1052 K965R): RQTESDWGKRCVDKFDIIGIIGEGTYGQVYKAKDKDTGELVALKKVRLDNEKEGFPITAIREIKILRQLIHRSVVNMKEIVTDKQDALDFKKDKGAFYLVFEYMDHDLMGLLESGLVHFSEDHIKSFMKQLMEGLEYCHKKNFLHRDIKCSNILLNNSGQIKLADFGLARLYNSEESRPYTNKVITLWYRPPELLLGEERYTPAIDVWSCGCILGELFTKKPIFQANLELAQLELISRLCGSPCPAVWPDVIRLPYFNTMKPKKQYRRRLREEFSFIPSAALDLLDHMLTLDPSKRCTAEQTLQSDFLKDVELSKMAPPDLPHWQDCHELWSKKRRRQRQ
- Sequence (O75909 1-267 partner): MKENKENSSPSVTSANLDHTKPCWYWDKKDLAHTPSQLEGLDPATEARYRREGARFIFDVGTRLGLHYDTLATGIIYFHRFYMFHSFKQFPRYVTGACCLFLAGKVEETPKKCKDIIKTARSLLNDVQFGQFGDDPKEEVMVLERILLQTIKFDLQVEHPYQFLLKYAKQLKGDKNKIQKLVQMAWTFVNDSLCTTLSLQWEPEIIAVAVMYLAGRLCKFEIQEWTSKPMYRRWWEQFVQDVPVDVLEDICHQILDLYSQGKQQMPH
- Sequence (Q16531 whole entry): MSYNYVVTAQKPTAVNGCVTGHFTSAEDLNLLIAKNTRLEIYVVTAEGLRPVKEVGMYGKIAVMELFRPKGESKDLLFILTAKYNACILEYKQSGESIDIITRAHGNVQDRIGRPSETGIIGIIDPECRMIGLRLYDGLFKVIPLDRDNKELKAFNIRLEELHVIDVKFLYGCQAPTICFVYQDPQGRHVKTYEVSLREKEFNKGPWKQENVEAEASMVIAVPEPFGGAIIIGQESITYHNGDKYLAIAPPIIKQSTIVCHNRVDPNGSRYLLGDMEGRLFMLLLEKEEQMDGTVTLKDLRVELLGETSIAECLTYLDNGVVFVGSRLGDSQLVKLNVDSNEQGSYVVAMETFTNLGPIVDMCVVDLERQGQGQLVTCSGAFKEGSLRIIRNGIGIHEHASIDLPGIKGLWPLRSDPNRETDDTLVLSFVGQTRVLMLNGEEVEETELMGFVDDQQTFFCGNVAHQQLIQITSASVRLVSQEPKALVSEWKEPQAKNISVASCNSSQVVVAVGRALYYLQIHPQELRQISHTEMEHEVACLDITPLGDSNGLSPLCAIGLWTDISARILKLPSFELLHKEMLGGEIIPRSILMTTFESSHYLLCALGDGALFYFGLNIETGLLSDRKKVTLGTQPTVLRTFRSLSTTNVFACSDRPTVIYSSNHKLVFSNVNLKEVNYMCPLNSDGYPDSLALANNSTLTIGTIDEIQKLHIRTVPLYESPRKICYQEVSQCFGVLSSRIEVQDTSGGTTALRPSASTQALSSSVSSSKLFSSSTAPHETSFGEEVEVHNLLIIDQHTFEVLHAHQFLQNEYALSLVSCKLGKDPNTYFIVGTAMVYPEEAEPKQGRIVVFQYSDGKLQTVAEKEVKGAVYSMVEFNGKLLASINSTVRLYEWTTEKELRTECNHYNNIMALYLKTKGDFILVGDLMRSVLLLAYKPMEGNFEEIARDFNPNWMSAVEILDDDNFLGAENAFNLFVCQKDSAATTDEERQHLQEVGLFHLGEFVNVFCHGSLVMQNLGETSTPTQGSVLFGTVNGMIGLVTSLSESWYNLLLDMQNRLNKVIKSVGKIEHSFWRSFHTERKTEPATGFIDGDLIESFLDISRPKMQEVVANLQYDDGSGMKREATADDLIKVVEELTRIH
- method_summary: TR-FRET Kd determination, quadratic fit, 50 nM or 10 nM CDK12–cyclin K
- Format: binding
- condition_set: 50 nM CDK12-cyclin K; compound 125.279 nM
property_name: TR-FRET signal
// return just the number, without any unit appended

Examples from the recorded data:
Suppose we examine the compound CCC(CO)Nc1nc(NCc2ccc(-c3ccccc3)cc2)c2ncn(C(C)C)c2n1 (stereo not shown) ; what TR-FRET signal value has been reported?
2.303

Suppose we examine the compound CC[C@H](CO)Nc1nc(NCc2nc3cc(Cl)c(Cl)cc3[nH]2)c2ncn(C(C)C)c2n1 ; what TR-FRET signal value has been reported?
3.326

Suppose we examine the compound Cc1cc2nc(CNc3nc(N4CCN(C)CC4)nc4c(Br)cnn34)[nH]c2cc1C [DS73, reference compound] ; what TR-FRET signal value has been reported?
3.159

Let us examine a further case.
Suppose we examine the compound CCC(CO)Nc1nc(NCc2ccc(-c3ccccn3)cc2)c2ncn(C(C)C)c2n1 (stereo not shown) [CR8, reference compound] ; what TR-FRET signal value has been reported?
2.851
